measurement.target: human ACC2 (Homo sapiens (Human), UniProt O00763)
Sequence (O00763 129-2458): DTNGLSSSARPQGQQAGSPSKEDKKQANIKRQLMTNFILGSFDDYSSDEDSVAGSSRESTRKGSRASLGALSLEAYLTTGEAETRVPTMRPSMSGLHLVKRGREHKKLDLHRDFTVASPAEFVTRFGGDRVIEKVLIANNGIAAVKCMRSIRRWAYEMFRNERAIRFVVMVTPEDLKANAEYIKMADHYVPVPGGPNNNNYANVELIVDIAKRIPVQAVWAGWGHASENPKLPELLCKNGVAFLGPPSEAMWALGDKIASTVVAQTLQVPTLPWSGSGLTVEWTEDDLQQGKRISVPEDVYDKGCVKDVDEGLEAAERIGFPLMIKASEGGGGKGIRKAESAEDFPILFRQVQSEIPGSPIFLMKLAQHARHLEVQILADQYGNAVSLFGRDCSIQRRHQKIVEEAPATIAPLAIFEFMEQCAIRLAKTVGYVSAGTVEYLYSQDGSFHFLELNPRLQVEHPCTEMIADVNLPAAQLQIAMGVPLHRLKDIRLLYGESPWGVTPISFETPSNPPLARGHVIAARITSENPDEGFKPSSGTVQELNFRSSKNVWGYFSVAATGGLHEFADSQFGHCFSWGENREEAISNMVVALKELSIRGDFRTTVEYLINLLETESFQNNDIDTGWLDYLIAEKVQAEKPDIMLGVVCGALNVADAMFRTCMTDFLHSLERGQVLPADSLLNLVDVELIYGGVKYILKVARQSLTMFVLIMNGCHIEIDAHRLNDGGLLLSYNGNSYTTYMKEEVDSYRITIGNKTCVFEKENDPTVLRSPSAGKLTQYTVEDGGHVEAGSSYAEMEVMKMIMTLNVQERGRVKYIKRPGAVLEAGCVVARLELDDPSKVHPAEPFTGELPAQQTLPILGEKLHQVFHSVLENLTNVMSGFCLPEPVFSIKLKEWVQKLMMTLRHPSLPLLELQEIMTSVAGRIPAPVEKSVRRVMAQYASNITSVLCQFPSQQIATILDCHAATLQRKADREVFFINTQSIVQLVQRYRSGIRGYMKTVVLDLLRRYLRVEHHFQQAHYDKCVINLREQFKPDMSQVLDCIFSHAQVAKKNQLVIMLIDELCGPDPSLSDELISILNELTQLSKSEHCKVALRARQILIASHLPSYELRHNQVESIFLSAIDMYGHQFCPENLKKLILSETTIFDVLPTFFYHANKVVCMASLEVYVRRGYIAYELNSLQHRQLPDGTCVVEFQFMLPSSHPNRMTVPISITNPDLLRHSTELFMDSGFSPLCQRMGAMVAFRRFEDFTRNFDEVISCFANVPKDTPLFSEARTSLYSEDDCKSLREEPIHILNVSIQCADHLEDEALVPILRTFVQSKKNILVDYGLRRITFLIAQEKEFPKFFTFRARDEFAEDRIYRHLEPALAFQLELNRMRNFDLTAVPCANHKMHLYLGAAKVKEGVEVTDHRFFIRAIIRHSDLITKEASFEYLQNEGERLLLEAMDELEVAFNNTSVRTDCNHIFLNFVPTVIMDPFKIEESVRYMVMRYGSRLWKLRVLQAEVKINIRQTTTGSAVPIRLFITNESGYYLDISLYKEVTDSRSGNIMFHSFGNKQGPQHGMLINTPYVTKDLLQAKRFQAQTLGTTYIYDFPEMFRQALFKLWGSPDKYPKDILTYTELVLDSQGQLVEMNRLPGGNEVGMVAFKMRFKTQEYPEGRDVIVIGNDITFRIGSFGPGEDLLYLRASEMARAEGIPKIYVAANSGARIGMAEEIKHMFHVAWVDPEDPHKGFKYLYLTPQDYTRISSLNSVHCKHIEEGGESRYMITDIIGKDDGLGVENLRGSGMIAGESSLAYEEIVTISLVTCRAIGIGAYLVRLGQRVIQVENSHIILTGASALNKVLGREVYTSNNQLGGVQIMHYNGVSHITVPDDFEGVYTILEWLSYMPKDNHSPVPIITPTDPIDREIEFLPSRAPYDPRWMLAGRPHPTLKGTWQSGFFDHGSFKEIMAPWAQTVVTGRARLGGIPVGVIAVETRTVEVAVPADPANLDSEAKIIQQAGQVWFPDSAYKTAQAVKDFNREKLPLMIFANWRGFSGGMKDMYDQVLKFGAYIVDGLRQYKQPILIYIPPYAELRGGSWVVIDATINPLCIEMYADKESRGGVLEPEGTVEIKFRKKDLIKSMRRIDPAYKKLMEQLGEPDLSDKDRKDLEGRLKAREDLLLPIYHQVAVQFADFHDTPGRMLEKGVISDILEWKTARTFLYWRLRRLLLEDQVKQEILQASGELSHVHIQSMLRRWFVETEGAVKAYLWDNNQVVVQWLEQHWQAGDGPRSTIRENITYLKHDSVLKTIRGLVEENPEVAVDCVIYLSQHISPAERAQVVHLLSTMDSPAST
experiment.summary: ACC2 assay (spectrophotometric 384 well assay, NADH-linked coupled lactate dehydrogenase/pyruvate kinase)
Type: biochemical
measurement.parameters: hACC2 construct lacking 128 N-terminal amino acids; 25° C., 340 nm, 15 minutes
endpoint: IC50

[[record]]
compound = "CCOc1ccc(N2CC(Oc3ccc([C@H](C)NC(=O)CC4CC4)cc3)C2)cc1"
experimental_result = "1740 nM"

[[record]]
compound = "CCCOc1ccc(N2CC(Oc3ccc([C@H](C)NC(C)=O)cc3)C2)c(C)c1"
experimental_result = "170 nM"

[[record]]
compound = "CC(=O)N[C@@H](C)c1ccc(OC2CN(c3nnc(-c4ccccc4)s3)C2)cc1"
experimental_result = "3820 nM"

[[record]]
compound = "CC(=O)N[C@@H](C)c1ccc(OC2CN(c3ncc4nc(-c5ccccc5)oc4n3)C2)cc1"
experimental_result = "1180 nM"

[[record]]
compound = "CCCOc1ccc(N2CC(Oc3ccc(C(C)NC(C)=O)cc3)C2)cn1 (stereo not shown)"
experimental_result = "560 nM"

[[record]]
compound = "CCOc1ccc(N2CC(Oc3ccc([C@H](C)NC(C)=O)cc3)C2)nc1"
experimental_result = "270 nM"

[[record]]
compound = "COc1cc(OC2CC2)ccc1N1CC(Oc2ccc([C@H](C)NC(C)=O)cc2)C1"
experimental_result = "1290 nM"

[[record]]
compound = "CC(=O)N[C@@H](C)c1ccc(OC2CN(c3ccnc(Oc4cncnc4)c3)C2)cc1"
experimental_result = "10600 nM"

[[record]]
compound = "CCNC(=O)N[C@@H](C)c1ccc(OC2CN(c3ccc(OCC)cc3)C2)cc1"
experimental_result = "440 nM"

[[record]]
compound = "CCOc1ccc(N2CC(Oc3ccc([C@H](C)NC(=O)C4CC=CC4)cc3)C2)cc1"
experimental_result = "350 nM"

[[record]]
compound = "CC(=O)N[C@@H](C)c1ccc(OC2CN(c3cc4c(cc3F)OCCCO4)C2)cc1"
experimental_result = "760 nM"

[[record]]
compound = "CCOc1ccc(N2CC(Oc3ccc([C@H](C)NC(=O)c4sc(NC(C)=O)nc4C)cc3)C2)cc1"
experimental_result = "170 nM"

[[record]]
compound = "CCOc1cc(N2CC(Oc3ccc([C@H](C)NC(C)=O)cc3)C2)ncn1"
experimental_result = "11800 nM"

[[record]]
compound = "CCCOc1ccc(N2CC(Oc3ccc([C@H](C)NC(=O)CF)cc3)C2)c(OC)c1"
experimental_result = "2370 nM"

[[record]]
compound = "CC(=O)N[C@@H](C)c1ccc(OC2CN(c3cc(C(F)(F)F)ncn3)C2)cc1"
experimental_result = "6110 nM"

[[record]]
compound = "CCOc1ccc(N2CC(Oc3ccc([C@H](C)NC(=O)CC(F)(F)F)cc3)C2)cc1"
experimental_result = "740 nM"

[[record]]
compound = "CC(=O)N[C@@H](C)c1ccc(OC2CN(c3cncc(C(F)(F)F)c3)C2)cc1"
experimental_result = "1050 nM"

[[record]]
compound = "CC(=O)N[C@@H](C)c1ccc(OC2CN(c3ccc(OCC4CC4)cc3C#N)C2)cc1"
experimental_result = "400 nM"

[[record]]
compound = "CCOc1ccc(N2CC(Oc3ccc([C@H](C)NC(=O)c4ccnnc4)cc3)C2)cc1"
experimental_result = "2250 nM"

[[record]]
compound = "CC(=O)N[C@@H](C)c1ccc(OC2CN(c3cc(OC4CCC4)ncn3)C2)cc1"
experimental_result = "3200 nM"

[[record]]
compound = "CCOc1ccc(N2CC(Oc3ccc([C@H](C)NC(=O)CF)cc3)C2)cc1"
experimental_result = "670 nM"

[[record]]
compound = "CCOC(=O)c1cc(C#N)c(N2CC(Oc3ccc([C@H](C)NC(C)=O)cc3)C2)nc1C(F)(F)F"
experimental_result = "1140 nM"

[[record]]
compound = "CCOc1ccc(N2CC(Oc3ccc([C@H](C)NC(=O)C4CC(OC)C4)cc3)C2)cc1 (stereo partly shown)"
experimental_result = "930 nM"

[[record]]
compound = "CCOc1ccc(N2CC(Oc3ccc([C@H](C)NC(C)=O)cc3)C2)c(C#N)n1"
experimental_result = "1390 nM"

[[record]]
compound = "CCOc1ccc(N2CC(Oc3ccc([C@H](C)NC(=O)c4csc(NC(C)=O)n4)cc3)C2)cc1"
experimental_result = "3160 nM"

[[record]]
compound = "CC(=O)N[C@@H](C)c1ccc(OC2CN(c3cccc(OC4CCCC4)c3)C2)cc1"
experimental_result = "780 nM"

[[record]]
compound = "CC(=O)N[C@@H](C)c1ccc(OC2CN(c3ccc(C(C)C)cn3)C2)cc1"
experimental_result = "2450 nM"

[[record]]
compound = "COc1cc(-c2cnc(N3CC(Oc4ccc([C@H](C)NC(C)=O)cc4)C3)nc2)ccn1"
experimental_result = "1740 nM"

[[record]]
compound = "COC(=O)N[C@@H](C)c1ccc(OC2CN(c3ncc(C4CC4)cn3)C2)cc1"
experimental_result = "420 nM"

[[record]]
compound = "CC(=O)N[C@@H](C)c1ccc(OC2CN(c3cccc(OCC4CC4(F)F)c3)C2)cc1 (stereo partly shown)"
experimental_result = "1250 nM"

[[record]]
compound = "CC(=O)NC(C)Cc1ccc(OC2CN(c3ccc(C(C)(C)C)cc3)C2)cc1 (stereo not shown)"
experimental_result = "2210 nM"

